# TARGET OR TEST SYSTEM: T1, human TREM2 (human, UniProt Q9NZC2 19-174, limits assumed)
# T1 construct: also called triggering receptor expressed on myeloid cells 2
# T1 sequence: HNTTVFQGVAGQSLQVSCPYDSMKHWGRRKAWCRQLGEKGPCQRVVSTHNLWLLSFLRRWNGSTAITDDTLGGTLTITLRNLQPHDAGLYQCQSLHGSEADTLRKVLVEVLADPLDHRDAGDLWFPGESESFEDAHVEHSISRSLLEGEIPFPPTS
# PROTOCOL NOTES: 1st screen (110 nM or 10 nM)
Parameter: Binding Signal (fold over 6E7 Parental antibody). Scope: all listed entries.
RECORDED METRIC: Binding Signal (fold over 6E7 Parental antibody) (fold)

{"BINDER": "V89 (antibody, V domains shown) VH: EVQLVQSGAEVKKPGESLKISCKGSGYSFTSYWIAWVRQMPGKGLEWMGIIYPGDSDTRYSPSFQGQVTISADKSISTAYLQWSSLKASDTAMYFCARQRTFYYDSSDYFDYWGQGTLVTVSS VL: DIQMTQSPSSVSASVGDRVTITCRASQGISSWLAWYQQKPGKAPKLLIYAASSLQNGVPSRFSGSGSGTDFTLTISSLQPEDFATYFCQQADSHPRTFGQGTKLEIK", "VALUE": 1.33}
{"BINDER": "V6 (antibody, V domains shown) VH: EVQLVQSGAEVKKPGESLKISCKGSGYSFTSMWIAWVRQMPGKGLEWMGIIYPGDSDTRYSPSFQGQVTISADKSISTAYLQWSSLKASDTAMYFCARQRTFYYDSSDYFDYWGQGTLVTVSS VL: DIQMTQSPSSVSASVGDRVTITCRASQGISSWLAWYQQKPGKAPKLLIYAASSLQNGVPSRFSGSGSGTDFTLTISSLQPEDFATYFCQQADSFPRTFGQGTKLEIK", "VALUE": 0.2}
{"BINDER": "V2 (antibody, V domains shown) VH: EVQLVQSGAEVKKPGESLKISCKGSGSSFTSYWIAWVRQMPGKGLEWMGIIYPGDGDTRYSPSFQGQVTISADKSISTAYLQWSSLKASDTAMYFCARSRTFYYDSSDYFDYWGQGTLVTVSS VL: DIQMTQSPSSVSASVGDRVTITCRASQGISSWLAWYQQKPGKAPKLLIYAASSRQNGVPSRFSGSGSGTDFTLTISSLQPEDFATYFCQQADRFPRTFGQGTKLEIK", "VALUE": 2.55}
